- Tested On: HIV-1 protease (Human immunodeficiency virus type 1 group M subtype B)
- Assay Remarks: Inhibition constants against HIV-1 protease (method of Pennington et al.)
- Type: biochemical
- Details: HIV-1 protease; read-out: Ki value
pKi: −log10 of the molar value.
Record t whenever pKi is at 9 or higher; record f when lower.

input_smiles=CC(C)CN(C[C@@H](O)[C@H](Cc1ccccc1)NC(=O)OCc1ccccc1)S(=O)(=O)c1ccc(N)c([N+](=O)[O-])c1 category=f
input_smiles=C=C(C)COC(=O)N[C@@H](Cc1ccccc1)[C@H](O)CN(CC(C)C)S(=O)(=O)c1ccc(NC(C)=O)cc1 category=f
input_smiles=CC(=O)Nc1cccc(S(=O)(=O)N(CC(C)C)C[C@@H](O)[C@H](Cc2ccccc2)NC(=O)O[C@H]2CCOC2)c1 category=f
input_smiles=CC(C)CN(C[C@@H](O)[C@H](Cc1ccccc1)NC(=O)O[C@H]1CCOC1)S(=O)(=O)N(C)C category=f
input_smiles=COc1ccc(S(=O)(=O)N(CC(C)C)C[C@@H](O)[C@H](Cc2ccccc2)NC(=O)OCc2ccncc2)cc1 category=t
input_smiles=COc1ccc(S(=O)(=O)N(C[C@@H](O)[C@H](Cc2ccccc2)NC(=O)O[C@H]2CCOC2)CC(C)(C)O)cc1 category=f
input_smiles=CCOC(=O)N[C@@H](Cc1ccccc1)[C@H](O)CN(CC1CCCC1)S(=O)(=O)c1ccc(F)cc1 category=t
input_smiles=CC(C)CN(C[C@@H](O)[C@H](Cc1ccccc1)NC(=O)COc1ccccc1)S(=O)(=O)c1cccc2nonc12 category=f
input_smiles=CCCOC(=O)N[C@@H](Cc1ccccc1)[C@H](O)CN(CC(C)C)S(=O)(=O)c1ccc(NC(C)=O)c(Cl)c1 category=f
input_smiles=CC(C)CN(C[C@@H](O)[C@H](Cc1ccccc1)NC(=O)O[C@H]1CCOC1)S(=O)(=O)c1ccc([N+](=O)[O-])cc1 category=t
input_smiles=C=C(C)CN(C[C@@H](O)[C@H](Cc1ccccc1)NC(=O)O[C@H]1CCOC1)S(=O)(=O)c1ccc(OC)cc1 category=f

###

- Tested On: HIV-1 protease (Human immunodeficiency virus type 1 group M subtype B, UniProt P04585)
- Assay Remarks: Inhibition constants against HIV-1 protease (method of Pennington et al.)
- Assay type: biochemical
- Details: HIV-1 protease; read-out: Ki value
pKi: −log10 of the molar value.
Each entry below lists one item and its recorded pKi value.
Attribute Measured: pKi

molecule="CC(=O)Nc1ccc(S(=O)(=O)N(CC(C)C)C[C@@H](O)[C@H](Cc2ccccc2)NC(=O)CCC(N)=O)cc1 [Compound 42]" measured_value=7.34
molecule="CC(C)(C)OC(=O)N[C@@H](Cc1ccccc1)[C@H](O)CN(CC1CCCC1)S(=O)(=O)c1ccc(Cl)c(Cl)c1 [Compound 84]" measured_value=8.85
molecule="CCC(C)C(NC(=O)OCc1ccccc1)C(=O)NC(Cc1ccccc1)C(O)CN(Cc1ccccc1)S(=O)(=O)Cc1ccccc1 (stereo not drawn) [Compound 186]" measured_value=6.85
molecule="O=C(N[C@@H](Cc1ccccc1)[C@H](O)CN(CC1CCCC1)S(=O)(=O)c1cccnc1)O[C@H]1CCOC1 [Compound 149]" measured_value=8.77
molecule="CCCOC(=O)N[C@@H](Cc1ccccc1)[C@H](O)CN(CC(C)C)S(=O)(=O)c1ccc(Cl)c(Cl)c1 [Compound 89]" measured_value=8.70
molecule="CC(=O)Nc1nc(C)c(S(=O)(=O)N(Cc2ccccc2)C[C@@H](O)[C@H](Cc2ccccc2)NC(=O)[C@H](CC(N)=O)NC(=O)c2ccc3ccccc3n2)s1 [Compound 5]" measured_value=8.70

###

- Tested On: HIV-1 protease (Human immunodeficiency virus type 1 group M subtype B, UniProt P04585)
- Assay Remarks: Inhibition constants against HIV-1 protease (method of Pennington et al.)
- Assay type: biochemical
- Details: HIV-1 protease; read-out: Ki value
Attribute Measured: log10 Ki (log10 of the value in nM)

compound="C=CCOC(=O)N[C@@H](Cc1ccccc1)[C@H](O)CN(CC(C)C)S(=O)(=O)c1ccc(F)cc1 [Compound 122]" measured_value=0.08
compound="COc1ccc(S(=O)(=O)N(CCN2CCCCC2)C[C@@H](O)[C@H](Cc2ccccc2)NC(=O)O[C@H]2CCOC2)cc1 [Compound 1014]" measured_value=3.97
compound="C=CCOC(=O)N[C@@H](Cc1ccccc1)[C@H](O)CN(CC(C)C)S(=O)(=O)c1ccc(NC(C)=O)cc1 [Compound 27]" measured_value=0.90
compound="CC(C)CN(C[C@@H](O)[C@H](Cc1ccccc1)NS(=O)(=O)N(C)C)S(=O)(=O)c1cccc2nonc12 [Compound 71]" measured_value=2.67
compound="COc1ccc(S(=O)(=O)N(CC2CCCC2)CC(O)C(Cc2ccccc2)NC(=O)OC2CCNC2)cc1 (stereo not shown) [Compound 185]" measured_value=0.54
compound="CC(C)CN(C[C@@H](O)[C@H](Cc1ccccc1)NC(=O)OC(C)(C)C)S(=O)(=O)c1ccc(F)cc1 [Compound 32]" measured_value=0.40
compound="NC(=O)C[C@H](NC(=O)c1ccc2ccccc2n1)C(=O)N[C@@H](Cc1ccccc1)[C@H](O)CN(Cc1ccccc1)S(=O)(=O)c1ccc(-c2ccon2)s1 [Compound 6]" measured_value=0.48
compound="CC(=O)Nc1ccc(S(=O)(=O)N(CC2CCCC2)C[C@@H](O)[C@H](Cc2ccccc2)NC(=O)OCc2cccnc2)cc1 [Compound 147]" measured_value=0.20
compound="COc1ccc(S(=O)(=O)N(C[C@@H](O)[C@H](Cc2ccccc2)NC(=O)O[C@H]2CCOC2)CC(C)(C)CO)cc1 [Compound 1009]" measured_value=1.30
compound="COc1ccc(S(=O)(=O)N(CC2CCCO2)CC(O)C(Cc2ccccc2)NC(=O)OC2CCOC2)cc1 (stereo not shown) [Compound 1007]" measured_value=1.62
compound="NC(=O)C[C@H](NC(=O)c1ccc2ccccc2n1)C(=O)N[C@@H](Cc1ccccc1)[C@H](O)CN(Cc1ccccc1)S(=O)(=O)c1cccc2nonc12 [Compound 9]" measured_value=0.60
compound="Cc1noc(C)c1S(=O)(=O)N(Cc1ccccc1)C[C@@H](O)[C@H](Cc1ccccc1)NC(=O)[C@H](CC(N)=O)NC(=O)c1ccc2ccccc2n1 [Compound 3]" measured_value=1.51

###

- Tested on: HIVIIIb in CCRM-CEM cells
- Assay Remarks: Anti-viral potency in CCRM-CEM cells acutely infected with HIVIIIb, extracellular p24 antigen readout (method of Meek et al.)
- Type: cell-based, HIV-1
- Details: Human immunodeficiency virus 1, read-out: IC90 Range
Attribute Measured: IC90

compound="CC(=O)Nc1ccc(S(=O)(=O)N(CC(C)C)CC(O)C(Cc2ccccc2)NC(=O)OC2CCOC2)cc1 (stereo not drawn) [Compound 86]" tested_on="HIVIIIb in CCRM-CEM cells" attribute_measured=IC90 measured_value="101 to 1000 nM"
compound="CC(C)CN(C[C@@H](O)[C@H](Cc1ccccc1)NC(=O)OC(C)(C)C)S(=O)(=O)c1ccccc1F [Compound 47]" tested_on="HIVIIIb in CCRM-CEM cells" attribute_measured=IC90 measured_value="1000 to 10000 nM"
compound="CC(C)CN(C[C@@H](O)[C@H](Cc1ccccc1)NC(=O)O[C@H]1CCOC1)S(=O)(=O)c1ccc(O)c(N)c1 [Compound 1004]" tested_on="HIVIIIb in CCRM-CEM cells" attribute_measured=IC90 measured_value="< 100 nM"
compound="CCC(C)C(NC(=O)c1cnc2ccccc2n1)C(=O)NC(Cc1ccccc1)C(O)CN(CC(C)C)S(=O)(=O)c1ccc(F)c(NC(C)=O)c1 (stereo not drawn) [Compound 188]" tested_on="HIVIIIb in CCRM-CEM cells" attribute_measured=IC90 measured_value="1000 to 10000 nM"
compound="CCC(C)C(NC(=O)OCc1ccccc1)C(=O)NC(Cc1ccccc1)C(O)CN(CC(C)C)S(=O)(=O)c1ccc(F)c(NC(C)=O)c1 (stereo not drawn) [Compound 187]" tested_on="HIVIIIb in CCRM-CEM cells" attribute_measured=IC90 measured_value="101 to 1000 nM"
compound="CC(C)CN(CC(O)C(Cc1ccccc1)NC(=O)OCC1CCOC1)S(=O)(=O)c1ccc(Cl)c(Cl)c1 (stereo not drawn) [Compound 85]" tested_on="HIVIIIb in CCRM-CEM cells" attribute_measured=IC90 measured_value="1000 to 10000 nM"

###

- Test system: HIVIIIb in CCRM-CEM cells
- Assay Remarks: Anti-viral potency in CCRM-CEM cells acutely infected with HIVIIIb, extracellular p24 antigen readout (method of Meek et al.)
- Type: cell-based, HIV-1
- Details: CCRM-CEM cells, HIV replication; read-out: IC90 Range
Counter-ions that a name gives are not always drawn.
Attribute Measured: IC90

molecule="CC(=O)Nc1ccc(S(=O)(=O)N(CC(C)C)CC(O)[C@H](Cc2ccccc2)NC(=O)C(CC(N)=O)C(=O)OCc2ccncc2)cc1 (stereo partly drawn)" measured_value="101 to 1000 nM"
molecule="CC(C)CN(CC(O)[C@H](Cc1ccccc1)NC(=O)O[C@H]1CCOC1)S(=O)(=O)c1cccnc1 (stereo partly drawn) [Compound 144, trifluoroacetic acid salt]" measured_value="101 to 1000 nM"
molecule="CC(=O)N1CCc2ccc(S(=O)(=O)N(CC3CCCC3)CC(O)[C@H](Cc3ccccc3)NC(=O)O[C@H]3CCOC3)cc21 (stereo partly drawn)" measured_value="101 to 1000 nM"
molecule="CC(C)CN(CC(O)[C@H](Cc1ccccc1)NC(=O)[C@H](CC(N)=O)NC(=O)c1ccc2ccccc2n1)S(=O)(=O)c1ccc(-c2ccccn2)s1 (stereo partly drawn)" measured_value="< 100 nM"
molecule="CC(C)CN(C[C@@H](O)[C@H](Cc1ccccc1)NC(=O)C(CC(N)=O)C(=O)OCc1ccccn1)S(=O)(=O)c1ccc(F)cc1 (stereo partly drawn)" measured_value="101 to 1000 nM"
molecule="CC(C)CN(CC(O)[C@H](Cc1ccccc1)NC(=O)O[C@@H]1CCOC1)S(=O)(=O)c1ccc(F)cc1 (stereo partly drawn)" measured_value="101 to 1000 nM"

Where these numbers come from: patent US20080293727A1
